# credit: patent US20180141988A1

Biological target: T1, human GPC3 on stably transfected SK-HEP-1 cells (human, UniProt P51654 25-554)
T1 construct: whole, on cells; also called SK-HEP-1::human GPC3
T1 sequence (P51654 25-554 limits assumed): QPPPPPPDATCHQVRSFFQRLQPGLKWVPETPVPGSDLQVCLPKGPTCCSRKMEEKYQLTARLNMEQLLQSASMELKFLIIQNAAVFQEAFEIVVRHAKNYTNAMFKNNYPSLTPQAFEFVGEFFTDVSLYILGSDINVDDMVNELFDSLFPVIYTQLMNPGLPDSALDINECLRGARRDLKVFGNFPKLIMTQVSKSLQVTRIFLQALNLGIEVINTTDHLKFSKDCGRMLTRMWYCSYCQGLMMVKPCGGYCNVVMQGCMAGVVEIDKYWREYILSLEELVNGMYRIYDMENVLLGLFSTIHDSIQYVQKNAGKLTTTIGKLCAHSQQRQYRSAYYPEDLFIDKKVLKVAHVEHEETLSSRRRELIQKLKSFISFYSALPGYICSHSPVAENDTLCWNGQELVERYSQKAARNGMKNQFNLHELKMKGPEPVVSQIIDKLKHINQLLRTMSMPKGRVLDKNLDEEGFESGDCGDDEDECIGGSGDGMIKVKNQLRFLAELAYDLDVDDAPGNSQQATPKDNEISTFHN
Assay: MSD-based (ECL) cell binding assay on transfected SK-HEP-1 cells
value.type: EC50 (nM)
Provide only the numeric value, understood in nM.

Q: Given the binder lipocalin mutein of SEQ ID NO: 9 (designed binder, hNGAL (Lcn2) mutein; also called optimized GPC3 specific lipocalin mutein) QDSTSDLIPAPPLSKVPLQQNFQDNQFQGKWYVVGRAGNVGLREDKDPPKMWATIYELKEDKSYDVTNVRFARKKCTYSIGTFVPGSQPGEFTLGQIKSEPGGTANLVRVVSTNYNQHAMVFFKEVYQNREIFFIILYGRTKELTSELKENFIRFSKSLGLPENHIVFPVPIDQCIDGSAWSHPQFEK , what is its reported EC50?
Result: 1.1

Q: And the next one, lipocalin mutein of SEQ ID NO: 4 (designed binder, hNGAL (Lcn2) mutein; also called non-optimized GPC3-specific Lcn2 mutein; mother clone) QDSTSDLIPAPPLSKVPLQQNFQDNQFHGKWYVVGRAGNVALREDKDPPKMRATIYELKEDKSYNVTNVRFAMKKCMYSIGTFVPGSQPGEFTLGQIKSEPGNTSNLVRVVSTNYNQHAMVFFKEVYQNREIFFITLYGRTKELTSELKENFIRFSKSLGLPENHIVFPVPIDQCIDGSAWSHPQFEK ?
Result: 10.2
